Each entry below carries its recorded OD 450 nm.
targetSystem: T1, Human hepcidin peptide (hepcidin-25) (human)
T1 construct: Synthetic 25 aa peptide; also called hep-25; Hep-25
T1 peptide: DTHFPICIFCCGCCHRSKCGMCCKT
assayDetails: titration affinity ELISA, hepcidin 100 ng/well on Nunc Immobilizer Amino plate, CHO supernatant; antibody 3.13 ng/ml
Protocol: FIGS. 17A-C. Titration affinity ELISA of humanized hits. FIG. 17A: Assay layout. […] Concentration of IgG in the supernatant was determined using BioAtla's quantitation ELISA. […] Bound antibodies were detected with anti-human IgG conjugated with HRP (1:2500). The reactions were stopped with 1 N HCl at 1.5 minutes after TMB was added to the wells and read immediately. […] FIG. 17B: OD 450 nm value of the reactions measured with Molecular Device SPECTRAMAX® Plus. […]
A number alone suffices; assume OD450.

// below: answered binders
{"binder": "BAP070-hum06 (antibody, IgG1, V domains shown, Expressed as soluble IgG1 in CHO cells, tested as supernatant; The entries stop inside FR4) VH: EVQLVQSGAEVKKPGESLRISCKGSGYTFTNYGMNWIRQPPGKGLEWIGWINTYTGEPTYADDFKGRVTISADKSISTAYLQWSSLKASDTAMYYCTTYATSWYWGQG VL: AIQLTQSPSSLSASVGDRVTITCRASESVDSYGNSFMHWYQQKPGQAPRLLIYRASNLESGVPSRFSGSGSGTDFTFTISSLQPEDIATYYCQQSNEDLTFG", "unitSpec": "OD450", "OD 450 nm": 1.15}
{"binder": "BAP070-hum03 (antibody, IgG1, V domains shown, Expressed as soluble IgG1 in CHO cells, tested as supernatant; The entries stop inside FR4) VH: QVQLVQSGAEVKKPGASVKVSCKASGYTFTNYGMNWVRQATGQGLEWMGWINTYTGEPTYADDFKGRFVFSLDTSVSTAYLQICSLKAEDTAVYYCTTYATSWYWGQG VL: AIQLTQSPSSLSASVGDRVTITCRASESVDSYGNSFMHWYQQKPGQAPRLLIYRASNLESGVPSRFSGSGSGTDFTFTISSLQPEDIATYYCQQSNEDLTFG", "unitSpec": "OD450", "OD 450 nm": 0.925}

Could you now look at the following binder, please?
IN: Which OD 450 nm reading was recorded for the binder BAP070-01 (human-mouse chimeric MAb 583) (antibody, human IgG1, kappa, V domains shown, used as CHO cell supernatant; also called BAP070-1) VH: QIQLVQSGPELKKPGETVKISCKASGYTFTNYGMNWVKQAPGKGLKWMGWINTYTGEPTYADDFKGRFAFSLETSASTAYLQINNLKNEDTATYFCTTYATSWYWGQGTLVTVSS VL: DIVLTQSPASLAVSLGQRATISCRASESVDSYGNSFMHWYQQKPGQPPKLLIYRASNLESGIPARFSGSGSRTDFTLTINPVEADDVATYYCQQSNEDLTFGQGTKVEIKR ?
OUT: 0.793
